- System: multiple species and strains
- experimentalDetails: microbe, parasite or virus in culture
- conditionContext: Klebsiella pneumoniae, ATCC10031, read-out: MIC S4, K. pneumoniae ATCC 10031
For each record, check the reported MIC: if it is below 0.03 µg/mL write Satisfied, else write Not satisfied.

>>> category("CNc1cc(F)c(C#N)c2c1[nH]c1ncc(-c3ccc4ccc(C(=O)O)c(=O)n4c3)c(N(C)C)c12 [Example 1.18]")
"Not satisfied"
>>> category("CNc1cc(F)c(Cl)c2c1[nH]c1ncc(-c3ccc4ccc(C(=O)O)c(=O)n4c3)c(N3CC[C@H]4CN(C)C[C@H]43)c12 [Example 1.07]")
"Not satisfied"
>>> category("CNc1cc(F)c(F)c2c1[nH]c1ncc(-c3ccc4c(C)cc(C(=O)O)c(=O)n4c3)c(N3CC[C@H]4CN(C)C[C@H]43)c12 (relative stereo) [Example 2.04]")
"Not satisfied"
>>> category("CNc1cc(F)c(F)c2c1[nH]c1ncc(-c3ccc4ccc(C(=O)O)c(=O)n4c3)c(N3CC[C@H]4CCN(C)[C@H]4C3)c12 [Example 3.04A]")
"Satisfied"
>>> category("CNc1cc(F)c(F)c2c1[nH]c1ncc(-c3ccc4ccc(C(=O)O)c(=O)n4c3)c(N(C)C)c12 [Example 1.01]")
"Not satisfied"

---

- Tested on: K. pneumoniae (ATCC10031)
- experimentalDetails: 50% growth inhibitory concentration (IC50) determination assay, K. pneumoniae
- Type: cell-based
- conditionContext: Iso-Sensitest broth, growth by OD 600 nm over 16 h; <0.098 = detection limit
propertyName: IC50

>>> assayresult("CNc1cc(F)c(C#N)c2c1[nH]c1ncc(-c3ccc4ccc(C(=O)O)c(=O)n4c3)c(N3C[C@H]4CCN(C)[C@H]4C3)c12 (single isomer, unassigned) [Example 1.16]")
"< 98 nM"

---

MIC overview
- Test system: multiple species and strains
- experimentalDetails: microbe, parasite or virus in culture
- conditionContext: Acinetobacter baumannii, ATCC51432, read-out: MIC S2, A. baumannii ATCC 51432
propertyName: MIC (µg/mL)

>>> assayresult("CNc1cc(F)c(F)c2c1[nH]c1ncc(-c3ccc4ccc(C(=O)O)c(=O)n4c3)c(N3CC[C@H]4CN(C)C[C@H]43)c12")
0.128
>>> assayresult("CNc1cc(F)c(Cl)c2c1[nH]c1ncc(-c3ccc4ccc(C(=O)O)c(=O)n4c3)c(N3C[C@H]4CC[C@@H](N(C)C)[C@H]4C3)c12")
0.274
>>> assayresult("CNc1cc(F)c(Cl)c2c1[nH]c1ncc(-c3ccc4ccc(C(=O)O)c(=O)n4c3)c(N3CC[C@@]4(C[C@@H]4N)C3)c12 (single isomer, unassigned) [Example 5.01A]")
1.03
>>> assayresult("CNc1cc(F)c(F)c2c1[nH]c1ncc(-c3ccc4ccc(C(=O)O)c(=O)n4c3)c(N3CC[C@@H]4CCN(C)[C@@H]4C3)c12 [Example 3.04B]")
0.436
>>> assayresult("CNc1cc(F)c(F)c2c1[nH]c1ncc(-c3ccc4ccc(C(=O)O)c(=O)n4c3)c(N3CCC(C4(N)CC4)C3)c12 (stereo not drawn)")
1.21
>>> assayresult("CNc1cc(F)c(F)c2c1[nH]c1ncc(-c3ccc4ccc(C(=O)O)c(=O)n4c3)c(N3CC[C@]4(C[C@@H]4N)C3)c12 [Example 4.01D]")
1.19

---

- experimentalDetails: Single dose PK study (SDPK) in female CD-1 mouse
- Format: in vivo
- conditionContext: plasma, IV bolus, 1.0 mg/kg solution, read-out: CL total
propertyName: clearance (mL/min/kg)

>>> assayresult("CNc1cc(F)c(Cl)c2c1[nH]c1ncc(-c3ccc4ccc(C(=O)O)c(=O)n4c3)c(N3CC[C@]4(C[C@@H]4N)C3)c12 [Example 5.01D]")
93
>>> assayresult("CNc1cc(F)cc2c1[nH]c1nc(Oc3cnc(C)nc3)nc(N3C[C@H]4C[C@@H]3C[C@H]4N)c12 [GP-6, reference compound]")
132
>>> assayresult("CNc1cc(F)c(C#N)c2c1[nH]c1ncc(-c3ccc4ccc(C(=O)O)c(=O)n4c3)c(N3CC[C@H]4CN(C)C[C@H]43)c12")
78.7
>>> assayresult("CNc1cc(F)c(F)c2c1[nH]c1ncc(-c3ccc4ccc(C(=O)O)c(=O)n4c3)c(N3CCC4CN(C)C[C@@H]43)c12 (stereo in doubt)")
39.1
>>> assayresult("CNc1cc(F)c(F)c2c1[nH]c1ncc(-c3ccc4ccc(C(=O)O)c(=O)n4c3)c(N3CC[C@H]4CN(C)C[C@H]43)c12")
64.1

---

Listing of entries alongside the reported IC50.
- System: K. pneumoniae (ATCC10031)
- experimentalDetails: 50% growth inhibitory concentration (IC50) determination assay, K. pneumoniae
- Type: cell-based
- conditionContext: Klebsiella pneumoniae, ATCC10031; Iso-Sensitest broth, growth by OD 600 nm over 16 h; <0.098 = detection limit
propertyName: IC50

>>> assayresult("CNc1cc(F)cc2c1[nH]c1ncc(-c3ccc4ccc(C(=O)O)c(=O)n4c3)c(N3C[C@@H]4CCN(C)[C@@H]4C3)c12 (single isomer, unassigned) [Example 3.01B]")
"< 98 nM"
>>> assayresult("CNc1cc(F)c(F)c2c1[nH]c1ncc(-c3ccc4c(C)cc(C(=O)O)c(=O)n4c3)c(N3CC[C@H]4CN(C)C[C@H]43)c12 (relative stereo) [Example 2.04]")
"< 98 nM"
>>> assayresult("CNc1cc(Cl)cc2c1[nH]c1ncc(-c3ccc4ccc(C(=O)O)c(=O)n4c3)c(N3CC[C@H]4CN(C)C[C@H]43)c12 (relative stereo) [Example 1.19]")
"< 98 nM"

---

- Test system: multiple species and strains
- experimentalDetails: microbe, parasite or virus in culture
- conditionContext: Klebsiella pneumoniae, ATCC10031, read-out: MIC S4, K. pneumoniae ATCC 10031
The following compounds are listed with their measured MIC values.
propertyName: MIC (µg/mL)

>>> assayresult("CNc1cc(F)c(Cl)c2c1[nH]c1ncc(-c3ccc4ccc(C(=O)O)c(=O)n4c3)c(N3CC[C@]4(C[C@H]4N)C3)c12 [Example 5.01B]")
0.032
>>> assayresult("CNc1cc(F)c(F)c2c1[nH]c1ncc(-c3ccc4c(Cl)cc(C(=O)O)c(=O)n4c3)c(N3CC[C@H]4CN(C)C[C@H]43)c12 (relative stereo)")
0.068
>>> assayresult("CNc1cc(F)c(F)c2c1[nH]c1ncc(-c3ccc4ccc(C(=O)O)c(=O)n4c3)c(N3CC[C@H]4CN(C)C[C@H]43)c12")
0.032
>>> assayresult("CNc1cc(F)c(F)c2c1[nH]c1ncc(-c3ccc4ccc(C(=O)O)c(=O)n4c3)c(N3CC[C@@H]4CCN(C)[C@@H]4C3)c12 [Example 3.04B]")
0.027
>>> assayresult("CNc1cc(F)c(F)c2c1[nH]c1ncc(-c3ccc4ccc(C(=O)O)c(=O)n4c3)c(N3CCC4CN(C)C[C@@H]43)c12 (stereo in doubt)")
0.03
>>> assayresult("CNc1cc(F)c(C#N)c2c1[nH]c1ncc(-c3ccc4ccc(C(=O)O)c(=O)n4c3)c(N3CC[C@H]4CN(C)C[C@H]43)c12")
0.027

---

- Test system: S. aureus (ATCC29213)
- experimentalDetails: 50% growth inhibitory concentration (IC50) determination assay, S. aureus
- Format: cell-based
- conditionContext: Staphylococcus aureus, ATCC29213; Iso-Sensitest broth, growth by OD 600 nm over 16 h; <0.098 = detection limit
propertyName: IC50

>>> assayresult("CNc1cc(F)c(F)c2c1[nH]c1ncc(-c3ccc4ccc(C(=O)O)c(=O)n4c3)c(N3C[C@H]4CCN(C)[C@H]4C3)c12 [Example 3.03A]")
"< 98 nM"
>>> assayresult("CNc1cc(F)cc2c1[nH]c1ncc(-c3ccc4ccc(C(=O)O)c(=O)n4c3)c(N3CCO[C@H](CN(C)C)C3)c12")
"379 nM"
>>> assayresult("CNc1cc(F)c(Cl)c2c1[nH]c1ncc(-c3ccc4ccc(C(=O)O)c(=O)n4c3)c(N3CC[C@]4(C[C@@H]4N)C3)c12 [Example 5.01D]")
"< 98 nM"
>>> assayresult("CNc1cc(F)c(F)c2c1[nH]c1ncc(-c3ccc4ccc(C(=O)O)c(=O)n4c3)c(N3CC4C(N(C)C)CO[C@@H]4C3)c12 (some centres unmarked)")
"137 nM"
>>> assayresult("CNc1cc(F)c(F)c2c1[nH]c1ncc(-c3ccc4ccc(C(=O)O)c(=O)n4c3)c(N3CC[C@@]4(C[C@H]4N)C3)c12 [Example 4.01B]")
"< 98 nM"
>>> assayresult("CNc1cc(F)c(F)c2c1[nH]c1ncc(-c3ccc4c(C5CC5)cc(C(=O)O)c(=O)n4c3)c(N3CC[C@H]4CN(C)C[C@H]43)c12 (relative stereo)")
"< 98 nM"
>>> assayresult("CNc1cc(F)c(F)c2c1[nH]c1ncc(-c3cc(C)c4ccc(C(=O)O)c(=O)n4c3)c(N3CC[C@H]4CN(C)C[C@H]43)c12 (relative stereo)")
"< 98 nM"
>>> assayresult("CNc1cc(F)cc2c1[nH]c1nc(Oc3cnc(C)nc3)nc(N3C[C@H]4C[C@@H]3C[C@H]4N)c12 [GP-6, reference compound]")
"< 98 nM"
>>> assayresult("CNc1cc(F)c(F)c2c1[nH]c1ncc(-c3ccc4ccc(C(=O)O)c(=O)n4c3)c(N(C)C)c12")
"< 98 nM"
>>> assayresult("CNc1cc(F)cc2c1[nH]c1ncc(-c3ccc4ccc(C(=O)O)c(=O)n4c3)c(N3C[C@H]4CCN(C)[C@H]4C3)c12 (single isomer, unassigned) [Example 3.01A]")
"< 98 nM"
>>> assayresult("CNc1cc(Cl)cc2c1[nH]c1ncc(-c3ccc4ccc(C(=O)O)c(=O)n4c3)c(N3CC[C@H]4CN(C)C[C@H]43)c12 (relative stereo)")
"185 nM"
>>> assayresult("CNc1cc(F)cc2c1[nH]c1ncc(-c3ccc4ccc(C(=O)O)c(=O)n4c3)c(N3CCOCC3)c12")
"159 nM"
>>> assayresult("CNc1cc(F)c(F)c2c1[nH]c1ncc(-c3ccc4c(CN(C)C)cc(C(=O)O)c(=O)n4c3)c(N3CC[C@H]4CN(C)C[C@H]43)c12 (relative stereo)")
"194 nM"
>>> assayresult("CNc1cc(F)cc2c1[nH]c1ncc(-c3ccc4ccc(C(=O)O)c(=O)n4c3)c(N3CCC4(C)CN(C)CC34)c12 (centres unmarked)")
"< 98 nM"
>>> assayresult("CNc1cc(F)c(Cl)c2c1[nH]c1ncc(-c3ccc4ccc(C(=O)O)c(=O)n4c3)c(N3CC[C@H]4CN(C)C[C@H]43)c12")
"< 98 nM"
>>> assayresult("CNc1cc(F)c(F)c2c1[nH]c1ncc(-c3ccc4ccc(C(=O)O)c(=O)n4c3)c(N3CCC4CN(C)C[C@@H]43)c12 (stereo in doubt)")
"< 98 nM"
>>> assayresult("CNc1cc(F)c(F)c2c1[nH]c1ncc(-c3ccc4c(C)cc(C(=O)O)c(=O)n4c3)c(N3CC[C@H]4CN(C)C[C@H]43)c12 (relative stereo)")
"< 98 nM"
>>> assayresult("CNc1cc(F)c(F)c2c1[nH]c1ncc(-c3ccc4ccc(C(=O)O)c(=O)n4c3)c(N3CC[C@]4(C[C@@H]4N)C3)c12 [Example 4.01D]")
"< 98 nM"
>>> assayresult("CNc1cc(F)cc2c1[nH]c1ncc(-c3ccc4ccc(C(=O)O)c(=O)n4c3)c(N3CC[C@H]4CN(C)C[C@H]43)c12 (single isomer, unassigned) [Example 3.02A]")
"102 nM"
>>> assayresult("CNc1cc(F)c(C#N)c2c1[nH]c1ncc(-c3ccc4ccc(C(=O)O)c(=O)n4c3)c(N3CC4C(N(C)C)CO[C@@H]4C3)c12 (some centres unmarked)")
"103 nM"
>>> assayresult("CNc1cc(F)c(Cl)c2c1[nH]c1ncc(-c3ccc4ccc(C(=O)O)c(=O)n4c3)c(N3C[C@H]4CC[C@@H](N(C)C)[C@H]4C3)c12")
"< 98 nM"
>>> assayresult("CNc1cc(F)c(F)c2c1[nH]c1ncc(-c3ccc4ccc(C(=O)O)c(=O)n4c3)c(N3CC4[C@H](CC[C@@H]4N(C)C)C3)c12 (some centres unmarked)")
"< 98 nM"
>>> assayresult("CNc1cc(F)c(F)c2c1[nH]c1ncc(-c3ccc4ccc(C(=O)O)c(=O)n4c3)c(N3CC[C@H]4CN(C)C[C@H]43)c12")
"< 98 nM"
